Consider the following MIC values measured on S. aureus ATCC.
Report only the number, with the unit µg/mL understood.

CNC(C)C1CCC(N)C(OC2C(N)CC(N)C(OC3OCC(C)(O)C(NC)C3O)C2O)O1 (stereo not shown) [GEN, gentamicin]	2

Determine reported MIC for CC1(C)S[C@@H]2[C@H](NC(=O)[C@H](N)c3ccccc3)C(=O)N2[C@H]1C(=O)O [AMP, ampicillin] ; test system: S. aureus ATCC.
4

Determine reported MIC for NCC[C@H](O)C(=O)N[C@@H]1C[C@H](N)[C@@H](O[C@H]2O[C@H](CN)[C@@H](O)[C@H](O)[C@H]2O)[C@H](O)[C@H]1O[C@H]1O[C@H](CO)[C@@H](O)[C@H](N)[C@H]1O [AMK, amikacin] ; test system: S. aureus ATCC.
8

Determine reported MIC for CC(C)(O/N=C(\C(=O)N[C@@H]1C(=O)N2C(C(=O)[O-])=C(C[n+]3ccccc3)CS[C@H]12)c1csc(N)n1)C(=O)O [CAZ, ceftazidime] ; test system: S. aureus ATCC.
4

----------
# MIC per entry
Tested on: CRKP4
protocolSummary: MIC, broth microdilution
Type: cell-based
conditionLabel: Klebsiella pneumoniae, MHB, 1 × 10^6 CFU/ml, 16–18 h, 37°C, independent triplicates
Method: The MIC of BMAP‐27B and other antibiotics was determined using the broth microdilution method, following the guidelines established by the Clinical and Laboratory Standards Institute (CLSI). Briefly, the bacterial cultures were grown to the logarithmic growth phase and subsequently diluted in Mueller–Hinton broth (MHB) to achieve a final concentration of 1 × 10^6 CFU/ml. […]

CN(C)[C@@H]1C(O)=C(C(N)=O)C(=O)[C@@]2(O)C(O)=C3C(=O)c4c(O)cccc4[C@@](C)(O)[C@H]3C[C@@H]12 [TET, tetracycline]	> 32 mg/L
CC(C)(O/N=C(\C(=O)N[C@@H]1C(=O)N2C(C(=O)[O-])=C(C[n+]3ccccc3)CS[C@H]12)c1csc(N)n1)C(=O)O [CAZ, ceftazidime]	> 32 mg/L

Kindly consider the entry below.
In one line, give reported MIC of the entry CC1(C)S[C@@H]2[C@H](NC(=O)[C@H](N)c3ccccc3)C(=O)N2[C@H]1C(=O)O [AMP, ampicillin] .
> 32 mg/L

----------
System: CREC5
protocolSummary: MIC, broth microdilution
Format: cell-based
conditionLabel: Escherichia coli, MHB, 1 × 10^6 CFU/ml, 16–18 h, 37°C, independent triplicates
# MIC per entry

Reference set, count: 2
CC(C)(O/N=C(\C(=O)N[C@@H]1C(=O)N2C(C(=O)[O-])=C(C[n+]3ccccc3)CS[C@H]12)c1csc(N)n1)C(=O)O	> 32 µg/mL
CC1(C)S[C@@H]2[C@H](NC(=O)[C@H](N)c3ccccc3)C(=O)N2[C@H]1C(=O)O	> 32 µg/mL

Kindly consider the entry below.
In one line, give reported MIC of the entry CN(C)[C@@H]1C(O)=C(C(N)=O)C(=O)[C@@]2(O)C(O)=C3C(=O)c4c(O)cccc4[C@@](C)(O)[C@H]3C[C@@H]12 .
> 32 µg/mL

----------
Consider the following MIC values measured on PREC3.

CC1(C)S[C@@H]2[C@H](NC(=O)[C@H](N)c3ccccc3)C(=O)N2[C@H]1C(=O)O	> 32 µg/mL
C[C@@H](O)[C@H]1C(=O)N2C(C(=O)O)=C(S[C@@H]3CN[C@H](C(=O)N(C)C)C3)[C@H](C)[C@H]12	< 1 µg/mL

Determine reported MIC for C[C@@H](O)[C@H]1C(=O)N2C(C(=O)O)=C(SCCN=CN)C[C@H]12 ; test system: PREC3.
< 1 µg/mL

Determine reported MIC for CN(C)[C@@H]1C(O)=C(C(N)=O)C(=O)[C@@]2(O)C(O)=C3C(=O)c4c(O)cccc4[C@@](C)(O)[C@H]3C[C@@H]12 ; test system: PREC3.
> 32 µg/mL
